Test system: NCI-H716 (Colorectal Carcinoma)
Method Summary: Bliss excess, mean over the matrix (fraction); higher = more synergy
Metric Name: Bliss excess

Known results for molecules:
# Molecule, Bliss excess
rows = [
    ("CC1(C)CCC(CN2CCN(c3ccc(C(=O)NS(=O)(=O)c4ccc(NCC5CCOCC5)c([N+](=O)[O-])c4)c(Oc4cnc5[nH]ccc5c4)c3)CC2)=C(c2ccc(Cl)cc2)C1 [Venetoclax] + CCN(CCO)CCCOc1ccc2c(Nc3cc(CC(=O)Nc4cccc(F)c4)[nH]n3)ncnc2c1 [AZD2811] (first compound max 1 µM, 7x7, partner max 1 µM)", -0.0813),
    ("CC(=O)c1c(C)c2cnc(Nc3ccc(N4CCNCC4)cn3)nc2n(C2CCCC2)c1=O [Palbociclib] + CC1(C)CCC(CN2CCN(c3ccc(C(=O)NS(=O)(=O)c4ccc(NCC5CCOCC5)c([N+](=O)[O-])c4)c(Oc4cnc5[nH]ccc5c4)c3)CC2)=C(c2ccc(Cl)cc2)C1 [Venetoclax] (first compound max 10 µM, 7x7, partner max 1 µM)", 0.0345),
    ("Cc1cc2ncnn2cc1Nc1ncc2c(n1)n(C1CCOCC1)c(=O)n2C [AZD7648] + CN(C)CCCOc1ccc(-c2ccc3ncc4c(c3c2)n(C2CCOCC2)c(=O)n4C)cn1 [AZD0156] (first compound max 10 µM, 7x7, partner max 1 µM)", 0.0563),
    ("CC1(C)CCC(CN2CCN(c3ccc(C(=O)NS(=O)(=O)c4ccc(NCC5CCOCC5)c([N+](=O)[O-])c4)c(Oc4cnc5[nH]ccc5c4)c3)CC2)=C(c2ccc(Cl)cc2)C1 [Venetoclax] + Cn1cnc2c(F)c(Nc3ccc(Br)cc3Cl)c(C(=O)NOCCO)cc21 [Selumetinib] (first compound max 1 µM, 7x7, partner max 3 µM)", -0.0814),
    ("COc1nnc2ccc(N3CCC(c4ccc(OCCN5CCN(C)C(=O)[C@H]5C)cc4)CC3)nn12 [AZD5153] + Cc1c2c(nn1C)CSCc1cc(n(C)n1)CSc1cc(c3ccccc3c1)OCCCc1c(C(=O)O)n(C)c3c-2c(Cl)ccc13 [AZD5991] (first compound max 1 µM, 7x7, partner max 1 µM)", 0.0076),
    ("COc1cccc(OCCCN)c1-c1cc(Nc2cnc(C#N)cn2)n[nH]1 [Prexasertib] + C=CCn1c(=O)c2cnc(Nc3ccc(N4CCN(C)CC4)cc3)nc2n1-c1cccc(C(C)(C)O)n1 [AZD1775] (first compound max 1 µM, partner max 1 µM)", 0.0167),
]

Look up and state reported Bliss excess for CN(CCO)CC[C@H](CSc1ccccc1)Nc1ccc(S(=O)(=O)NC(=O)c2ccc(N3CCC([C@@H](O)c4ccccc4-c4ccc(Cl)cc4)CC3)cc2)cc1S(=O)(=O)C(F)(F)F [AZD4320] + C1CN(CCC1(C(=O)N[C@@H](CCO)C2=CC=C(C=C2)Cl)N)C3=NC=NC4=C3C=CN4 [Capivasertib] (first compound max 1 µM, 7x7, partner max 3 µM)
-0.0262

----------
Test system: Jurkat (T-Lymphoblastic Leukemia)
Method Summary: combination Emax (second highest fraction inhibited in the dose matrix, 72 h); higher = more inhibition; extreme values may be limits of the assay
# combination Emax per record follows
# print the numeric value only

# Molecule, Test Target, Metric Name, Reading
data = [
    ("Cc1c2c(nn1C)CSCc1cc(n(C)n1)CSc1cc(c3ccccc3c1)OCCCc1c(C(=O)O)n(C)c3c-2c(Cl)ccc13 [AZD5991] + C=CCn1c(=O)c2cnc(Nc3ccc(N4CCN(C)CC4)cc3)nc2n1-c1cccc(C(C)(C)O)n1 [AZD1775] (first compound max 1 µM, partner max 1 µM)", "Jurkat (T-Lymphoblastic Leukemia)", "combination Emax", 0.972),
    ("Cc1c2c(nn1C)CSCc1cc(n(C)n1)CSc1cc(c3ccccc3c1)OCCCc1c(C(=O)O)n(C)c3c-2c(Cl)ccc13 [AZD5991] + C[C@@H]1COCCN1C2=NC(=NC(=C2)C3(CC3)[S@](=N)(=O)C)C4=C5C=CNC5=NC=C4 [AZD6738] (first compound max 1 µM, 7x7, partner max 10 µM)", "Jurkat (T-Lymphoblastic Leukemia)", "combination Emax", 0.974),
    ("NC1(C(=O)N[C@@H](CCO)c2ccc(Cl)cc2)CCN(c2ncnc3[nH]ccc23)CC1 [Capivasertib] + Cn1cnc2c(F)c(Nc3ccc(Br)cc3Cl)c(C(=O)NOCCO)cc21 [Selumetinib] (first compound max 10 µM, 7x7, partner max 10 µM)", "Jurkat (T-Lymphoblastic Leukemia)", "combination Emax", 0.686),
]

Look up and state reported combination Emax for COc1nnc2ccc(N3CCC(c4ccc(OCCN5CCN(C)C(=O)[C@H]5C)cc4)CC3)nn12 [AZD5153] + CC1(C)CCC(CN2CCN(c3ccc(C(=O)NS(=O)(=O)c4ccc(NCC5CCOCC5)c([N+](=O)[O-])c4)c(Oc4cnc5[nH]ccc5c4)c3)CC2)=C(c2ccc(Cl)cc2)C1 [Venetoclax] (first compound max 1 µM, 7x7, partner max 1 µM)
0.679

Look up and state reported combination Emax for Cc1c2c(nn1C)CSCc1cc(n(C)n1)CSc1cc(c3ccccc3c1)OCCCc1c(C(=O)O)n(C)c3c-2c(Cl)ccc13 [AZD5991] + CCN(CCO)CCCOc1ccc2c(Nc3cc(CC(=O)Nc4cccc(F)c4)[nH]n3)ncnc2c1 [AZD2811] (first compound max 1 µM, 7x7, partner max 1 µM)
0.919

Look up and state reported combination Emax for CS(=O)(=O)CCNCc1ccc(-c2ccc3ncnc(Nc4ccc(OCc5cccc(F)c5)c(Cl)c4)c3c2)o1 [Lapatinib] + C[C@@H](Oc1cc(-c2cnn(C3CCNCC3)c2)cnc1N)c1c(Cl)ccc(F)c1Cl [Crizotinib] (first compound max 10 µM, 7x7, partner max 10 µM)
0.947

----------
Test system: UACC-812 (Breast Carcinoma)
Method Summary: Bliss excess, mean over the matrix (fraction); higher = more synergy
Metric Name: Bliss excess
# print the numeric value only

# Molecule, Test Target, Bliss excess
records = [
    ("CN(C)CCCOc1ccc(-c2ccc3ncc4c(c3c2)n(C2CCOCC2)c(=O)n4C)cn1 [AZD0156] + O=C(c1cc(Cc2n[nH]c(=O)c3ccccc23)ccc1F)N1CCN(C(=O)C2CC2)CC1 [Olaparib] (first compound max 3 µM, partner max 3 µM)", "UACC-812 (Breast Carcinoma)", -0.113),
]

Let's switch to this molecule now.
Look up and state reported Bliss excess for C[C@@H](Oc1cc(-c2cnn(C3CCNCC3)c2)cnc1N)c1c(Cl)ccc(F)c1Cl [Crizotinib] + Cn1cnc2c(F)c(Nc3ccc(Br)cc3Cl)c(C(=O)NOCCO)cc21 [Selumetinib] (first compound max 10 µM, 7x7, partner max 10 µM)
-0.0437

----------
System: NCI-H2087 (Lung Adenocarcinoma)
Method Summary: combination Emax (second highest fraction inhibited in the dose matrix, 72 h); higher = more inhibition; extreme values may be limits of the assay
Give met when the value for combination Emax is at least 0.7. Give not met when it is less.

# Compound, Label Value
rows = [
    ("CC1(C)CCC(CN2CCN(c3ccc(C(=O)NS(=O)(=O)c4ccc(NCC5CCOCC5)c([N+](=O)[O-])c4)c(Oc4cnc5[nH]ccc5c4)c3)CC2)=C(c2ccc(Cl)cc2)C1 [Venetoclax] + C=CCn1c(=O)c2cnc(Nc3ccc(N4CCN(C)CC4)cc3)nc2n1-c1cccc(C(C)(C)O)n1 [AZD1775] (first compound max 1 µM, partner max 1 µM)", "not met"),
    ("Cc1cc2ncnn2cc1Nc1ncc2c(n1)n(C1CCOCC1)c(=O)n2C [AZD7648] + C=CCn1c(=O)c2cnc(Nc3ccc(N4CCN(C)CC4)cc3)nc2n1-c1cccc(C(C)(C)O)n1 [AZD1775] (first compound max 10 µM, partner max 1 µM)", "not met"),
    ("CC(=O)c1c(C)c2cnc(Nc3ccc(N4CCNCC4)cn3)nc2n(C2CCCC2)c1=O [Palbociclib] + Cn1cnc2c(F)c(Nc3ccc(Br)cc3Cl)c(C(=O)NOCCO)cc21 [Selumetinib] (first compound max 10 µM, 7x7, partner max 10 µM)", "not met"),
]

Hi, just wondering whether N#Cc1cnc(Nc2cc(NC[C@H]3CNCCO3)c(C(F)(F)F)cn2)cn1 [SRA737] + CCc1c2c(nc3ccc(O)cc13)-c1cc3c(c(=O)n1C2)COC(=O)[C@]3(O)CC [SN-38] (first compound max 10 µM, 7x7, partner max 0.3 µM) shows combination Emax of 0.7 or higher.
met

Hi, just wondering whether COc1cccc(OCCCN)c1-c1cc(Nc2cnc(C#N)cn2)n[nH]1 [Prexasertib] + Cc1cc2ncnn2cc1Nc1ncc2c(n1)n(C1CCOCC1)c(=O)n2C [AZD7648] (first compound max 1 µM, 7x7, partner max 10 µM) shows combination Emax of 0.7 or higher.
met

Hi, just wondering whether O=C(c1cc(Cc2n[nH]c(=O)c3ccccc23)ccc1F)N1CCN(C(=O)C2CC2)CC1 [Olaparib] + CC1(C)CCC(CN2CCN(c3ccc(C(=O)NS(=O)(=O)c4ccc(NCC5CCOCC5)c([N+](=O)[O-])c4)c(Oc4cnc5[nH]ccc5c4)c3)CC2)=C(c2ccc(Cl)cc2)C1 [Venetoclax] (first compound max 10 µM, 7x7, partner max 1 µM) shows combination Emax of 0.7 or higher.
not met

Hi, just wondering whether Cc1cc2ncnn2cc1Nc1ncc2c(n1)n(C1CCOCC1)c(=O)n2C [AZD7648] + C[C@@H]1COCCN1C2=NC(=NC(=C2)C3(CC3)[S@](=N)(=O)C)C4=C5C=CNC5=NC=C4 [AZD6738] (first compound max 10 µM, 7x7, partner max 10 µM) shows combination Emax of 0.7 or higher.
not met

Hi, just wondering whether NC1(C(=O)N[C@@H](CCO)c2ccc(Cl)cc2)CCN(c2ncnc3[nH]ccc23)CC1 [Capivasertib] + CC(C)n1c(=O)n(C)c2cnc3cc(F)c(-c4ccc(OCCCN5CCCCC5)nc4)cc3c21 [AZD1390] (first compound max 10 µM, 7x7, partner max 0.3 µM) shows combination Emax of 0.7 or higher.
not met

Hi, just wondering whether C[C@@H](c1ccc2nccn2c1)n1nnc2ncc(-c3cnn(C)c3)nc21 [Savolitinib] + Cc1c2c(nn1C)CSCc1cc(n(C)n1)CSc1cc(c3ccccc3c1)OCCCc1c(C(=O)O)n(C)c3c-2c(Cl)ccc13 [AZD5991] (first compound max 1 µM, 7x7, partner max 1 µM) shows combination Emax of 0.7 or higher.
not met

Hi, just wondering whether CN(CCO)CC[C@H](CSc1ccccc1)Nc1ccc(S(=O)(=O)NC(=O)c2ccc(N3CCC([C@@H](O)c4ccccc4-c4ccc(Cl)cc4)CC3)cc2)cc1S(=O)(=O)C(F)(F)F [AZD4320] + C[C@@H]1COCCN1C2=NC(=NC(=C2)C3(CC3)[S@](=N)(=O)C)C4=C5C=CNC5=NC=C4 [AZD6738] (first compound max 1 µM, 7x7, partner max 10 µM) shows combination Emax of 0.7 or higher.
met

Hi, just wondering whether COc1cc2ncnc(Nc3ccc(F)c(Cl)c3)c2cc1OCCCN1CCOCC1 [Gefitinib] + CC(C)n1c(=O)n(C)c2cnc3cc(F)c(-c4ccc(OCCCN5CCCCC5)nc4)cc3c21 [AZD1390] (first compound max 10 µM, 7x7, partner max 0.3 µM) shows combination Emax of 0.7 or higher.
not met

Hi, just wondering whether Cc1c2c(nn1C)CSCc1cc(n(C)n1)CSc1cc(c3ccccc3c1)OCCCc1c(C(=O)O)n(C)c3c-2c(Cl)ccc13 [AZD5991] + C[C@@H](Nc1cc(F)cc(F)c1)c1cc(C(=O)N(C)C)cc2c(=O)cc(N3CCOCC3)oc12 [AZD8186] (first compound max 1 µM, 7x7, partner max 3 µM) shows combination Emax of 0.7 or higher.
not met

Data origin, for the record: the supplement of paper PMC11061612
